# Test system: panel of breast cancer cell lines
# Experiment: Compound A with targeted agents and chemotherapies, 72-hour in vitro proliferation assays
# Assay type: cell-based
# Condition Description: HCC38; compound A × partner, 72-hour proliferation
Measured Attribute: Synergy Score
One number for each entry.

compound_structure=CCOc1cc2ncc(C#N)c(Nc3ccc(OCc4ccccn4)c(Cl)c3)c2cc1NC(=O)/C=C/CN(C)C reported_result=11.55
compound_structure=Cn1ncnc1[C@H]1c2n[nH]c(=O)c3cc(F)cc(c23)N[C@@H]1c1ccc(F)cc1 reported_result=20.73
compound_structure=CC(=O)c1c(C)c2cnc(Nc3ccc(N4CCNCC4)cn3)nc2n(C2CCCC2)c1=O reported_result=0.01

Now, please, on to the next compound.
Input N.N.O=C([O-])C1(C(=O)[O-])CCC1.[Pt+2] . Output Synergy Score: 9.07
